testedTarget: Eukaryotic translation initiation factor 4E (Mus musculus) + Eukaryotic translation initiation factor 4 gamma 1 (Homo sapiens) (UniProt P63073+Q04637)
Sequence (P63073 whole entry, looked up, the tested form may be a part): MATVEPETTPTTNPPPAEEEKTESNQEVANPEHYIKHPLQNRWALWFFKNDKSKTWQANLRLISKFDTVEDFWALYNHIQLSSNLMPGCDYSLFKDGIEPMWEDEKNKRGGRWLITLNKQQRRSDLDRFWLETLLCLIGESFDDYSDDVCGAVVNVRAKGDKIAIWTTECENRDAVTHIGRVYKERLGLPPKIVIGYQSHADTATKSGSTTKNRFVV
Sequence (Q04637 whole entry, looked up, the tested form may be a part): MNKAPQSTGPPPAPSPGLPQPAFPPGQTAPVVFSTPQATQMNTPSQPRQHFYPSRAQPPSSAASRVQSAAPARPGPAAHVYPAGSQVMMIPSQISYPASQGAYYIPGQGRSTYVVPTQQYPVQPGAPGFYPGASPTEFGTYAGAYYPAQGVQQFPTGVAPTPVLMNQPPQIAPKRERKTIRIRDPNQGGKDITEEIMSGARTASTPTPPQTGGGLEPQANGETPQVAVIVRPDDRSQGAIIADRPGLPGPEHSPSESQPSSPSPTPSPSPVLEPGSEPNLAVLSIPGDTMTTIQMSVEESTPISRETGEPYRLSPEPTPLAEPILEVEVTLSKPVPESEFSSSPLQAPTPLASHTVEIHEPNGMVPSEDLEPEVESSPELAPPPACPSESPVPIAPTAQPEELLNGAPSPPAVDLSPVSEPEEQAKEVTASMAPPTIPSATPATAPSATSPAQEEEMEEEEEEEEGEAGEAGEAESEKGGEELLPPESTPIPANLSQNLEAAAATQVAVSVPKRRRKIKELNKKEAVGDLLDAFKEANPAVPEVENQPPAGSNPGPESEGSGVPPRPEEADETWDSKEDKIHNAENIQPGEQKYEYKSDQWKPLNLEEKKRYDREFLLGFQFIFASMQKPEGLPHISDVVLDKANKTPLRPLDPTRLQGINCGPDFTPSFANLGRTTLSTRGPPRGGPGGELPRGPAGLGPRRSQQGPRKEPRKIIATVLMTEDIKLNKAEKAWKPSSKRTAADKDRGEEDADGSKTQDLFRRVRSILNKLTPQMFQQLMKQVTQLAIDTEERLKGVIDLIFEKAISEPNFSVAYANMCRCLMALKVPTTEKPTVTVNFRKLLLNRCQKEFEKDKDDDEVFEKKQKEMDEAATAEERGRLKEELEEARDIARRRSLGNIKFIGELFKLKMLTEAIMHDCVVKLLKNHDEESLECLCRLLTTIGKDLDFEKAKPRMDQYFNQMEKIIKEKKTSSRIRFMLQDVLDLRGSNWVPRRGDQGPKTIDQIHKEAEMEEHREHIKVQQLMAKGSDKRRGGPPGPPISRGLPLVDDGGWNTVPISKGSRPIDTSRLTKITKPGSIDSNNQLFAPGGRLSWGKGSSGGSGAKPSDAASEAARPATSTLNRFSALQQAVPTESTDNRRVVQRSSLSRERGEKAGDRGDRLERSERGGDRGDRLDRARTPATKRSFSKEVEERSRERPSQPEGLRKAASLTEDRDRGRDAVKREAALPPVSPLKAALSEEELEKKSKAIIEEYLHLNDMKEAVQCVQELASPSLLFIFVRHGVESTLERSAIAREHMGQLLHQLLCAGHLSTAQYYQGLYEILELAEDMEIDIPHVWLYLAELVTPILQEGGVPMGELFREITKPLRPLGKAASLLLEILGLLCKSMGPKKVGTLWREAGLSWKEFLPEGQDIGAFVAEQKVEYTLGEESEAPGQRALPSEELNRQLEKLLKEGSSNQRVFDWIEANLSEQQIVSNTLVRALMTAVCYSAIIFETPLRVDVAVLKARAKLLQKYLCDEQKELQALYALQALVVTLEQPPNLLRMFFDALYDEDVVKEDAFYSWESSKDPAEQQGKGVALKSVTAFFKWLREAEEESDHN
assayInfo: eIF4E–eIF4G protein interaction inhibitors, primary screen, biochemical, uHTS, TR-FRET, eIF4GI fragment (AID 782)
measurementParameters: TR-FRET eIF4E-eIF4GI(517-606) binding, 2 h; at 21.7 µM
In all, about 220,000 compounds went through this assay and about 800 (0.36%) were called active.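 Rule for the calls: active = inhibition above about 30% (limit read from the data); inactive = the rest.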 Only a selection was taken, and actives are over-represented in it overall.
Labels: y for active, n for inactive

compound	cat
COC(=O)[C@@H]1C[C@@]2(O)[C@H](O)[C@H](O)[C@H](O)C[C@H]2N1Cc1ccc(C)s1	n
O=C(Nc1ccccc1C(F)(F)F)N1CCCC1c1cccnc1 (stereo unspecified)	n
O=C(Cc1ccccc1)NCC1OCCc2ccccc21 (stereo unspecified)	n
C/C(Cn1nnc2ccccc21)=N\OC(=O)c1cc(F)c(F)cc1Cl	n
CC(C)N(C(=O)c1ccc(-c2ccccc2F)cc1)C(C)C	n
Cc1c(C(=O)N/N=C/c2ccccc2)[nH]c2c([N+](=O)[O-])cccc12	y
Cc1nc(Cl)c(C#N)c2c1CCCC2	n
Cc1cc2cc(CNC(=O)c3ccc(S(=O)(=O)N4CCOCC4)cc3)ccc2[nH]1	n
CC(NCc1nc2ccccc2n1C)C12CC3CC(CC(C3)C1)C2 (stereo unspecified)	n
CCOC(=O)C1=NN(c2ccc(Cl)cc2)/C(=C/C2=NCCc3cc(OC)c(OC)cc32)S1	n
Cc1ccc(N(C(=O)c2ccc(CN3CCOCC3)o2)C(C(=O)NCCC(C)C)c2cccs2)c(C)c1 (stereo unspecified)	n

Reference source: PubChem BioAssay AID782
